Reference source for all entries: ChEMBL document CHEMBL3507680

Assay: Human HepG2 cell viability assay in 384 well format
Type: toxicity, cell-based
Set-up: dose 125 nL, time 70.5 hour; concentration not given beside the values
Details: HepG2 cells, read-out: Inhibition
VALUE KIND: cytotoxicity at 70.5 h (%)
Answers are plain numbers, in %.

Here is how some compounds turned out for cytotoxicity at 70.5 h.
# COMPOUND, VALUE KIND, DATA VALUE
records = [
    ("O=C(CCc1ccccc1)N1CC(n2cncn2)C1", "cytotoxicity at 70.5 h", -7.88),
    ("CCS(=O)(=O)N1C[C@H]2CN(Cc3cccnc3)C(=O)[C@H]2C1", "cytotoxicity at 70.5 h", 16.7),
]

Provide each entry's cytotoxicity at 70.5 h from the list below.
1. COC(=O)C(c1ccccc1)N(C)C(=O)c1ccnc(C)n1 (configuration not stated)
2. Cc1cc(C(=O)N2CCN(S(C)(=O)=O)[C@@H](C)C2)c(F)cc1F
3. CN(C)CCN(C)C(=O)Cc1ccc2c(c1)OCCO2

1. -8.31
2. -97.9
3. 0.0835

Provide each entry's cytotoxicity at 70.5 h from the list below.
1. Cc1ccccc1CN(Cc1ccncc1)CC(C)C
2. CN(C)CC(=O)N1CCc2ncnc(-c3cncnc3)c2CC1
3. Cc1cc(C(=O)N2CCC3(CC2)C(=O)NCCN3CC(C)C)c(C)o1
4. Nc1cc(C(=O)NCC2CCN(Cc3ccncc3F)C2)ccn1 (configuration not stated)

1. -4.55
2. -3.5
3. -2.92
4. 20.9

Provide each entry's cytotoxicity at 70.5 h from the list below.
1. CCOc1ccc(Cl)c(C(=O)N2CCCC(c3cc(C)[nH]n3)C2)n1 (configuration not stated)
2. CC(C)Cc1cc(C(=O)N2CCC(Oc3cccnc3)CC2)n(C)n1
3. CCc1ccc(-c2c(C)c(-c3cnn(C)c3)nc(N)c2C#N)o1

-2.21
-8.18
-6.72

Provide each entry's cytotoxicity at 70.5 h from the list below.
1. O=C(Nc1ccccn1)C1CCN(C(=O)COc2ccccc2F)C1 (configuration not stated)
2. O=C(C1CC=CC1)N1CC[C@H]2[C@@H]1CCC(=O)N2c1ccccc1
3. Cc1cc(C(=O)Nc2ccc3oc(=O)n(CCN(C)C)c3c2)c(C)o1

[18.6, -3.86, 9.45]

---

Hi there, I'd appreciate the recorded cytotoxicity at 70.5 h for every entry that follows.
Assay: Human HepG2 cell viability assay in 384 well format
Format: toxicity, cell-based
Design: dose 125 nL, time 70.5 hour; concentration not given beside the values
Conditions: HepG2 cells, read-out: Inhibition
Answers are plain numbers, in %.

Here is how some molecules turned out for cytotoxicity at 70.5 h.
# MOLECULE, DATA VALUE
data = [
    ("Cc1cc2n(n1)CC(CNC1CCN(CCc3ccccc3)CC1)CN2 (configuration not stated)", 0.368),
    ("Cc1nnc(N2CCC(CS(N)(=O)=O)CC2)c(C#N)c1C", -9.82),
    ("CC(C)N(C(=O)CN(C)C1CCc2ccccc21)C(C)C (configuration not stated)", -0.805),
]

Provide each entry's cytotoxicity at 70.5 h from the list below.
1. CCCN(CCC)C(=O)CN(C)Cc1cnc(C)s1
2. O=C(O)c1c(-c2cncnc2)ncc2c1CCN(Cc1cccnc1)C2
3. Cc1noc(NC(=O)c2ccc(OC(F)(F)F)cc2)n1
4. OCCN1CCC(CNCc2ccccc2OC(F)(F)F)CC1
5. Cc1cnc2c(c1NCc1cccnc1)c(=O)n(C)c(=O)n2C
6. Cc1c(COC(C)C)cccc1NC(=O)N1CCC(N2CCCC2)C1 (configuration not stated)
7. O=c1[nH]nc2c(S(=O)(=O)N3CCN(c4ccc(F)cc4)CC3)cccn12

1. 3.46
2. 2.19
3. 55.7
4. -7.57
5. -0.599
6. 9
7. 20.6

Provide each entry's cytotoxicity at 70.5 h from the list below.
1. COc1ccc(C(=O)NC2CC2)c(OC2CCN(C(C)CO)CC2)c1 (configuration not stated)
2. O=C(O)c1ccccc1-n1cc(CN2CCOC(c3cc[nH]n3)C2)cn1 (configuration not stated)
3. COc1ccc([C@@H](C)n2ccnc2-c2cc3n(n2)CCCNC3)cc1
4. Cc1ccc(CN2CCN(c3ncnc4[nH]cnc34)CC2CCO)cc1 (configuration not stated)

1. 0.736
2. -12.9
3. 18.8
4. 4.25

Provide each entry's cytotoxicity at 70.5 h from the list below.
1. Cc1cnn(CC2CN(Cc3nc(-c4ccco4)no3)CCO2)c1 (configuration not stated)
2. Cc1cccc(C(=O)N2C[C@@H]3CCN(c4cccnc4)C[C@@H]3C2)c1
3. Cc1cc(C2CCCN2CCCc2nc3ccccc3o2)on1 (configuration not stated)
4. O=C(NC[C@H]1C[C@@H]2CN(C(=O)c3ccco3)C[C@@H]2O1)c1ccsc1
5. CCCC(C#N)NC(=O)c1sccc1CC (configuration not stated)

1: -0.209; 2: 31.2; 3: -16.1; 4: -3.16; 5: -12.4

---

Test: Human HepG2 cell viability assay in 384 well format
Format: toxicity, cell-based
Parameters: dose 125 nL, time 70.5 hour; concentration not given beside the values
Conditions: HepG2 cells, read-out: Inhibition
Hi there, I'd appreciate the recorded cytotoxicity at 70.5 h for every entry that follows.
Answers are plain numbers, in %.

Here is how some molecules turned out for cytotoxicity at 70.5 h.
# MOLECULE, UNIT TAG, cytotoxicity at 70.5 h
measured = [
    ("CO[C@@H]1CN(c2ccccc2)S(=O)(=O)[C@@]12CCN(Cc1cncs1)C2", "%", -2.7),
    ("CCC[C@@H]1CN(C(=O)c2c(F)ccc(C)c2Cl)C[C@H]1C(=O)O", "%", 0.166),
    ("Cn1cccc1C(=O)N1CCCC2(CCCN2Cc2cccnc2)C1 (stereo unspecified)", "%", -5.57),
]

Provide each entry's cytotoxicity at 70.5 h from the list below.
1. Cc1ccc(C(=O)N(CC(=O)O)CC(C)C)cc1F
2. CC1CCc2[nH]c(=O)c(C(=O)N3CCc4ccccc4C3)cc2C1 (stereo unspecified)
3. Cn1cnc(S(=O)(=O)N2C[C@H]3CN(Cc4ccccn4)C[C@H]3C2)c1

[-7.92, 0.747, -1.38]

---

Assay: Human HepG2 cell viability assay in 384 well format
Type: toxicity, cell-based
Design: dose 125 nL, time 70.5 hour; concentration not given beside the values
Conditions: HepG2 cells, read-out: Inhibition
VALUE KIND: cytotoxicity at 70.5 h (%)
Answers are plain numbers, in %.

# MOLECULE, DATA VALUE
records = [
    ("CCc1nc(C)c(C(C)N(C)CCOC)s1 (configuration not stated)", 10.1),
    ("CC(=O)N1CCN(Cc2c(C)ccc3ccccc23)CC(O)C1 (configuration not stated)", -6.49),
    ("CN(Cc1cc(-c2cccnc2)no1)C(=O)C1CCCN1S(C)(=O)=O (configuration not stated)", -8.25),
]

Provide each entry's cytotoxicity at 70.5 h from the list below.
1. Cc1nc(C)c(CC(=O)N2CCC(Oc3ccccc3)CC2)c(=O)[nH]1
2. c1csc(CNc2ccccc2Cn2cncn2)c1
3. O=C(Nc1ccccc1F)C1CN(C(=O)c2ccc3c(c2)OCO3)C1
4. Cc1occc1C(=O)N1Cc2nccn2CC(CN(C)C)C1 (configuration not stated)
5. CC1CN(c2ncccc2C(=O)N[C@@H]2CCCc3ccccc32)CCN1 (some centres not stated)

1. -7.9
2. 7.58
3. -11.5
4. -8.13
5. -4.37

Provide each entry's cytotoxicity at 70.5 h from the list below.
1. CN1CC(=O)N(c2ccccc2)CC12CCN(CC1CC1)C2 (configuration not stated)
2. O=C(O)c1cnc(-c2cccc3c2CCNC3)c(Cl)c1
3. Nc1cc2c(nn1)CCN(C(=O)c1ccc(Oc3cccnc3)cc1)C2
4. CC(C)c1nncn1CCNC(=O)c1c(O)cc(F)cc1F

[-26.6, -11.1, -9.26, -4.67]

---

Hi there, I'd appreciate the recorded cytotoxicity at 70.5 h for every entry that follows.
Test: Human HepG2 cell viability assay in 384 well format
Format: toxicity, cell-based
Set-up: dose 125 nL, time 70.5 hour; concentration not given beside the values
Settings: HepG2 cells, read-out: Inhibition
Answers are plain numbers, in %.

Here is how some compounds turned out for cytotoxicity at 70.5 h.
# COMPOUND, VALUE KIND, UNIT TAG, DATA VALUE
measured = [
    ("CO[C@@H]1CN(S(=O)(=O)c2cn(C)cn2)[C@@H]2CCCO[C@@H]21", "cytotoxicity at 70.5 h", "%", -4.74),
    ("CCC(CC)CS(=O)(=O)NC(=O)C1CCC1", "cytotoxicity at 70.5 h", "%", -4.87),
    ("O=C(NCCCN1CCN(c2ncccn2)CC1)NCC1CCOC1 (centres undefined)", "cytotoxicity at 70.5 h", "%", 3.56),
    ("CC(C)CN1Cc2nc(N)ncc2C1=O", "cytotoxicity at 70.5 h", "%", -10.7),
    ("Cc1ccc(CN2Cc3c(cnn3C)C(COCC3CC3)C2)s1 (centres undefined)", "cytotoxicity at 70.5 h", "%", 35.1),
    ("CC(C)(C)CC(=O)NCC(=O)Nc1ccn(CCCn2ccnc2)n1", "cytotoxicity at 70.5 h", "%", -2.26),
]

Provide each entry's cytotoxicity at 70.5 h from the list below.
1. COc1cccc2c(=O)n(C3CCNCC3)cnc12
2. CC1c2ncc(COCC3CCOCC3)n2CCN1C(=O)c1ccco1 (centres undefined)

1: -18.3; 2: -10.5

Provide each entry's cytotoxicity at 70.5 h from the list below.
1. CN(C)S(=O)(=O)N1C[C@H]2C[C@H](C(=O)NCc3ccccc3)[C@@H](C1)O2
2. CN1CCC(n2nc(Cc3cccc(Cl)c3)nc2Cn2cnnn2)CC1
3. CCn1nc(C)c2nc(C)nc(NCCc3ccc(C)cc3)c21
4. CCOc1ncccc1NC(=O)N1CCN(CC(=O)NC)CC1

[-12.2, 27.5, 34.1, -8.56]

Provide each entry's cytotoxicity at 70.5 h from the list below.
1. CCc1nn(C)c(Cl)c1CN1C[C@@H](NC(=O)N(C)C)[C@H](C(C)C)C1
2. O=C(CCn1ccnc1)N1C[C@@H](O)[C@H](Oc2cccc(F)c2)C1
3. COc1ccccc1N1CCCC(NC(=O)Nc2cccnc2)C1 (centres undefined)
4. Cc1nn(C)c2cnn(Cc3ccc(C(=O)N4CCCCC4)o3)c12
5. CN1CCOC(CNC(=O)CCCOCCc2ccccc2)C1 (centres undefined)
6. CC(=O)Nc1nc(C2CCN(C(C)=O)CC2)cs1
7. Cc1nn(C)c(C)c1-c1cnc(CC2CCNC2)cn1 (centres undefined)
8. CN1CCN(CC2(O)CCCN(S(=O)(=O)c3cn[nH]c3)CC2)CC1 (centres undefined)

-5.68
0.895
8.99
-5.62
-14.2
-22
-4.3
-3.77

Provide each entry's cytotoxicity at 70.5 h from the list below.
1. c1ccc(-c2nnc([C@H]3CCN(C4CCOCC4)C3)o2)cc1
2. O=C1[C@H]2CN(Cc3cccs3)C[C@H]2CN1CCN1CCCC1

[-0.562, 12]

Provide each entry's cytotoxicity at 70.5 h from the list below.
1. O=C(Nc1cc(-c2cccnc2)no1)C1CCCCC1
2. O=C1N(c2ccc(Br)cc2)Cc2n[nH]c(=O)n21

[-4.13, 23.8]
